target: HCV NS5BΔ21/Gal4-DBD fusion protein (Hepatitis C virus genotype 1b, UniProt Q9WMX2); construct: The protein was expressed with a 21 amino acid C-terminal deletion to remove transmembrane domain; assay: 3D-SCREEN assay (NS5B reporter gene assay in Huh-7 cells)
pEC50: −log10 of the molar value.
Reported pEC50 values for a set of compounds
READOUT_KIND: pEC50

1. Cc1ccc(C(=O)C2=C(O)C(=O)N(c3nnc(C)s3)C2c2ccc(C(C)C)cc2)cc1 (stereo not shown) [Example 54] ... 4.89
2. Cc1ccc(C(=O)C2=C(O)C(=O)N(c3ncc(S(=O)(=O)N4CCOCC4)s3)C2c2ccc(C(C)C)cc2)cc1 (stereo not shown) [Example 41] ... 4.79
3. Cc1ccc(C(=O)C2=C(O)C(=O)N(c3ncc(S(=O)(=O)c4ccc([N+](=O)[O-])cc4)s3)C2c2cccc(Cl)c2)cc1 (stereo not shown) [Example 51] ... 5.15
4. CC(C)c1ccc(C2C(C(=O)c3ccc(Cl)cc3)=C(O)C(=O)N2c2ncc(S(=O)(=O)c3ccc([N+](=O)[O-])cc3)s2)cc1 (stereo not shown) [Example 32] ... 5.70
5. O=C(C1=C(O)C(=O)N(c2ncc(S(=O)(=O)c3ccc([N+](=O)[O-])cc3)s2)C1c1cccc(Cl)c1)c1ccc(Cl)cc1 (stereo not shown) [Example 59] ... 4.85
6. CC(C)c1ccc(C2C(C(=O)Cc3ccccc3)=C(O)C(=O)N2c2ncc(S(=O)(=O)c3ccc([N+](=O)[O-])cc3)s2)cc1 (stereo not shown) [Example 11] ... 4.92
7. COc1ccc(C2C(C(=O)c3ccc(Cl)cc3)=C(O)C(=O)N2c2ncc(S(=O)(=O)c3ccc([N+](=O)[O-])cc3)s2)cc1 (stereo not shown) [Example 52] ... 5.22
8. Cc1ccc(C(=O)C2=C(O)C(=O)N(c3ncc(S(=O)(=O)c4ccc([N+](=O)[O-])cc4)s3)C2c2ccc(C(C)C)cc2)cc1 (stereo not shown) [Example 10] ... 5.70
9. CON=C(C1=C(O)C(=O)N(c2ncc(S(=O)(=O)c3ccc([N+](=O)[O-])cc3)s2)C1c1ccc(C(C)C)cc1)c1ccc(C)cc1 (mixture of isomers) [Example 49] ... 5.40
10. Cc1ccc(C(=O)C2=C(O)C(=O)N(c3ncc(S(=O)(=O)N(C)C)s3)C2c2ccc(C(C)C)cc2)cc1 (stereo not shown) [Example 39] ... 4.80
11. Cc1ccc(C(=O)C2=C(O)C(=O)N(c3ncc(S(=O)(=O)c4ccc([N+](=O)[O-])cc4)s3)C2c2ccc(C(C)(C)C)cc2)cc1 (stereo not shown) [Example 28] ... 5.70
12. CN(C)c1ccc(C(=O)C2=C(O)C(=O)N(c3ncc(S(=O)(=O)c4ccc([N+](=O)[O-])cc4)s3)C2c2ccc(C(C)(C)C)cc2)cc1 (stereo not shown) [Example 55] ... 5.40
13. Cc1ccc(C2C(C(=O)c3ccc(Cl)cc3)=C(O)C(=O)N2c2ncc(S(=O)(=O)c3ccc([N+](=O)[O-])cc3)s2)cc1 (stereo not shown) [Example 66] ... 4.85
14. CC(C)(C)c1ccc(C2C(C(=O)c3ccc(Cl)cc3)=C(O)C(=O)N2c2ncc(S(=O)(=O)c3ccc([N+](=O)[O-])cc3)s2)cc1 (stereo not shown) [Example 40] ... 5.30

====

Measured melting point by item
READOUT_KIND: melting point

1) CC(C)c1ccc(C(=O)C2=C(O)C(=O)N(c3ncc(S(=O)(=O)c4ccc([N+](=O)[O-])cc4)s3)C2c2ccc(OC(F)(F)F)cc2)cc1 (stereo not shown) ... 276 to 278 °C
2) COC1=C(C(=O)c2ccc(OC)cc2)C(c2ccc(C(C)(C)C)cc2)N(c2nnc(C)s2)C1=O (stereo not shown) ... 235 to 237 °C
3) Cc1ccc(C(=O)C2=C(O)C(=O)N(c3ncc(S(=O)(=O)N4CCOCC4)s3)C2c2ccc(C(C)C)cc2)cc1 (stereo not shown) ... 247 to 252 °C
4) COC(=O)c1ccc(C2C(C(=O)c3ccc(OC)cc3)=C(O)C(=O)N2c2nnc(C)s2)cc1 (stereo not shown) ... 255 to 257 °C

====

target: HCV NS5BΔ21/Gal4-DBD fusion protein (Hepatitis C virus genotype 1b, UniProt Q9WMX2); construct: The protein was expressed with a 21 amino acid C-terminal deletion to remove transmembrane domain; assay: 3D-SCREEN assay (NS5B reporter gene assay in Huh-7 cells)
# Lookup of reported EC50 keyed by entry
READOUT_KIND: EC50

1. Cc1cnc(N2C(=O)C(O)=C(C(=O)c3ccc(C(C)C)cc3)C2c2ccc(OC(F)(F)F)cc2)s1 (centres unmarked) [Example 130] ... < 10 µM
2. Cc1nnc(N2C(=O)C(O)=C(C(=O)c3ccc(C(C)C)cc3)C2c2ccc(C(F)(F)F)cc2)s1 (centres unmarked) [Example 128] ... < 1 µM
3. O=C(O)c1ccc(C2C(C(=O)c3ccco3)=C(O)C(=O)N2c2ncc(S(=O)(=O)c3ccc([N+](=O)[O-])cc3)s2)cc1 (centres unmarked) [Example 112] ... < 10 µM
4. CC(C)c1ccc(C(=O)C2=C(O)C(=O)N(c3ncc(S(=O)(=O)c4ccc([N+](=O)[O-])cc4)s3)C2c2ccc(OC(F)(F)F)cc2)cc1 (centres unmarked) [Example 125] ... < 10 µM
5. Cc1cnc(N2C(=O)C(O)=C(C(=O)c3ccc(C(C)C)cc3)C2c2ccc(C(F)(F)F)cc2)s1 (centres unmarked) [Example 129] ... < 10 µM
